# Experimental details: Solubility of TH-302
# Format: physicochemical
# Assay context: organic solvent or mixture; ethanol/TWEEN 80 or ethanol/TWEEN 80/DMA, depending on the ratio; read-out: Solubility of TH-302
Quantity kind: solubility

Task: Field request: solubility | item: Cn1c(COP(=O)(NCCBr)NCCBr)cnc1[N+](=O)[O-]
Result: ≤ 300 mg/mL
